- Assay system: Aspartate--tRNA(Asp/Asn) ligase (Mycobacterium tuberculosis (strain ATCC 25618 / H37Rv))
- Sequence (whole entry): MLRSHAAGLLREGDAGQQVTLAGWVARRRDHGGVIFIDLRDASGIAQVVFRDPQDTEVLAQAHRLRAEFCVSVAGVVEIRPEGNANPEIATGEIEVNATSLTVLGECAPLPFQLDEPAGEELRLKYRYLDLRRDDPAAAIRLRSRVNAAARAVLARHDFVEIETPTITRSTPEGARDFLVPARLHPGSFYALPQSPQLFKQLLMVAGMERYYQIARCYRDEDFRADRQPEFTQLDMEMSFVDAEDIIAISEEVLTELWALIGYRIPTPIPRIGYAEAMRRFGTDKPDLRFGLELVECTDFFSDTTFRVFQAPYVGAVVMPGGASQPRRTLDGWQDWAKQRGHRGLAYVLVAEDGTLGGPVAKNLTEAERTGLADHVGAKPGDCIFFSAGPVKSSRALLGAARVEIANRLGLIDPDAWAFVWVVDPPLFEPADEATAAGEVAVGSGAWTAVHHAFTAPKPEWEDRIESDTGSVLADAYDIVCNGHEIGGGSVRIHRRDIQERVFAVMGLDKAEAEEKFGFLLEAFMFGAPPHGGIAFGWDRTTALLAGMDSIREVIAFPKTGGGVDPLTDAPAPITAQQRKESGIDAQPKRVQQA
- Protocol description: Assay for Asp RNA synthetase-1 from Mycobacterium tuberculosis
- Type: functional
- Parameters: scale not given: in the data most compounds retested in dose-response had high values
- Condition notes: 30 µM

- Compound: "Cc1cc(CN2CCOC(CN(C)c3cccnn3)C2)no1 (centres undefined)"
  Assay system: "Aspartate--tRNA(Asp/Asn) ligase (Mycobacterium tuberculosis (strain ATCC 25618 / H37Rv))"
  Percent Effect: "-2.36%"
- Compound: "CCOCC(O)CN1CCN(C(=O)Cc2ccccc2C)CC1 (centres undefined)"
  Assay system: "Aspartate--tRNA(Asp/Asn) ligase (Mycobacterium tuberculosis (strain ATCC 25618 / H37Rv))"
  Percent Effect: "-3.28%"
- Compound: "CCn1cnnc1CNC(=O)N(C)Cc1ccc2c(c1)OCCO2"
  Assay system: "Aspartate--tRNA(Asp/Asn) ligase (Mycobacterium tuberculosis (strain ATCC 25618 / H37Rv))"
  Percent Effect: "14.5%"
- Compound: "CNC(=O)c1cccc(CNC(=O)C2CC(=O)N(CCN(C)C)C2)c1 (centres undefined)"
  Assay system: "Aspartate--tRNA(Asp/Asn) ligase (Mycobacterium tuberculosis (strain ATCC 25618 / H37Rv))"
  Percent Effect: "-2.01%"
- Compound: "CCN(C)c1ncnc2c1CCN(Cc1csc(C)n1)CC2"
  Assay system: "Aspartate--tRNA(Asp/Asn) ligase (Mycobacterium tuberculosis (strain ATCC 25618 / H37Rv))"
  Percent Effect: "-3.19%"
- Compound: "Cn1nc(C2CCCN(Cc3ccsc3)C2)c2nccnc21 (centres undefined)"
  Assay system: "Aspartate--tRNA(Asp/Asn) ligase (Mycobacterium tuberculosis (strain ATCC 25618 / H37Rv))"
  Percent Effect: "-2.96%"
- Compound: "COc1ccc(CN2C[C@H]3CN(c4ccsc4)C(=O)[C@H]3C2)cc1"
  Assay system: "Aspartate--tRNA(Asp/Asn) ligase (Mycobacterium tuberculosis (strain ATCC 25618 / H37Rv))"
  Percent Effect: "4.05%"
- Compound: "Cc1cnn(C2CCCN(C(=O)Cc3cn4ccccc4n3)C2)c1 (centres undefined)"
  Assay system: "Aspartate--tRNA(Asp/Asn) ligase (Mycobacterium tuberculosis (strain ATCC 25618 / H37Rv))"
  Percent Effect: "-6.71%"
- Compound: "CC(NC(=O)NCCN1CCCCCC1=O)c1nncn1C (centres undefined)"
  Assay system: "Aspartate--tRNA(Asp/Asn) ligase (Mycobacterium tuberculosis (strain ATCC 25618 / H37Rv))"
  Percent Effect: "-7.63%"
- Compound: "COCCN1C[C@@H]2CN(Cc3cccc(F)c3)CCC[C@]2(C(=O)O)C1"
  Assay system: "Aspartate--tRNA(Asp/Asn) ligase (Mycobacterium tuberculosis (strain ATCC 25618 / H37Rv))"
  Percent Effect: "6.95%"
- Compound: "COc1c(C)cnc(CSc2nnc(C)s2)c1C"
  Assay system: "Aspartate--tRNA(Asp/Asn) ligase (Mycobacterium tuberculosis (strain ATCC 25618 / H37Rv))"
  Percent Effect: "-1.18%"
- Compound: "O=C(O)[C@]12CCCN(Cc3ccncc3)[C@@H]1CCN(c1cnccn1)C2"
  Assay system: "Aspartate--tRNA(Asp/Asn) ligase (Mycobacterium tuberculosis (strain ATCC 25618 / H37Rv))"
  Percent Effect: "0.862%"
- Compound: "O=C(c1ccoc1)N1CC[C@H]2OCC[C@@]2(COc2ncccc2F)C1"
  Assay system: "Aspartate--tRNA(Asp/Asn) ligase (Mycobacterium tuberculosis (strain ATCC 25618 / H37Rv))"
  Percent Effect: "-0.296%"
- Compound: "Cc1ncsc1C(=O)N(C)CCc1ccncc1"
  Assay system: "Aspartate--tRNA(Asp/Asn) ligase (Mycobacterium tuberculosis (strain ATCC 25618 / H37Rv))"
  Percent Effect: "-1.68%"
- Compound: "CN1CCCc2cc(CNC(=O)c3ccc(NC4CC4)nc3)ccc21"
  Assay system: "Aspartate--tRNA(Asp/Asn) ligase (Mycobacterium tuberculosis (strain ATCC 25618 / H37Rv))"
  Percent Effect: "-3.1%"
- Compound: "Cc1csc2ncc(-c3ccnc(N4CCCC[C@@H]4CO)n3)c(=O)n12"
  Assay system: "Aspartate--tRNA(Asp/Asn) ligase (Mycobacterium tuberculosis (strain ATCC 25618 / H37Rv))"
  Percent Effect: "-2.34%"
- Compound: "CS(=O)(=O)N1CCC(Oc2ccc(C(=O)N3CCSCC3)cc2Cl)CC1"
  Assay system: "Aspartate--tRNA(Asp/Asn) ligase (Mycobacterium tuberculosis (strain ATCC 25618 / H37Rv))"
  Percent Effect: "1.75%"
- Compound: "O=C(c1ccncc1)N1C[C@@H]2CC[C@H](C1)N(C(=O)N1CCOCC1)C2"
  Assay system: "Aspartate--tRNA(Asp/Asn) ligase (Mycobacterium tuberculosis (strain ATCC 25618 / H37Rv))"
  Percent Effect: "2.77%"
- Compound: "CCc1noc(C(C)N2CCC(C(=O)Nc3cnn(CC)c3)CC2)n1 (centres undefined)"
  Assay system: "Aspartate--tRNA(Asp/Asn) ligase (Mycobacterium tuberculosis (strain ATCC 25618 / H37Rv))"
  Percent Effect: "-3.65%"
- Compound: "Cc1nocc1C(=O)N1CCc2c(CN(C)C(C)C)n[nH]c2C1"
  Assay system: "Aspartate--tRNA(Asp/Asn) ligase (Mycobacterium tuberculosis (strain ATCC 25618 / H37Rv))"
  Percent Effect: "0.866%"
- Compound: "O=C(NC1CCC1)[C@@H]1C[C@@H]2CCN(Cc3cccs3)C[C@@H]2O1"
  Assay system: "Aspartate--tRNA(Asp/Asn) ligase (Mycobacterium tuberculosis (strain ATCC 25618 / H37Rv))"
  Percent Effect: "-2.46%"
- Compound: "CCn1cc(N)c(C(=O)NCc2cnn(C)c2)n1"
  Assay system: "Aspartate--tRNA(Asp/Asn) ligase (Mycobacterium tuberculosis (strain ATCC 25618 / H37Rv))"
  Percent Effect: "-1.99%"
- Compound: "c1cncc(COCc2nnc3n2CCN(Cc2ccsc2)C3)c1"
  Assay system: "Aspartate--tRNA(Asp/Asn) ligase (Mycobacterium tuberculosis (strain ATCC 25618 / H37Rv))"
  Percent Effect: "-0.684%"
- Compound: "CCN(CC)CC(=O)NCCc1csc(N2CCCC2)n1"
  Assay system: "Aspartate--tRNA(Asp/Asn) ligase (Mycobacterium tuberculosis (strain ATCC 25618 / H37Rv))"
  Percent Effect: "1.28%"

These measurements were taken from ChEMBL document CHEMBL3988442.
